- target.or.system: UniProt P51684
- assay.comment: potency against CXCR6 with APJ panel – cell-based, beta-arrestin, DiscoveRx, uHTS hits, dose response (AID 624129)
- condition.context: CXCR6 beta-arrestin (DiscoveRx) antagonist cell assay, CCR6, run 2, dose range 1
Recorded IC50 by entry
Number only, in µM; omit the unit.

{"compound": "C=C1C(=O)C23C(O)C1CCC2C12CCCC(C)(COC(C)=O)C1C(O)C3(O)OC2 (stereo not given)", "recorded.measurement": 6}
{"compound": "CCCOc1cccc(-c2cc(C(=O)N/N=C/c3ccccn3)c3ccccc3n2)c1", "recorded.measurement": 4.63}
{"compound": "Cc1ccc(C(=O)Sc2cccccc2=O)cc1", "recorded.measurement": 1.92}
{"compound": "C=C1CC(COc2ccc3c(C)c(Cl)c(=O)oc3c2)(c2ccccc2)OC1=O (stereo not given)", "recorded.measurement": 2.66}
{"compound": "CC1(C)CC(=O)C2=C(C1)OC1=C(C(=O)CC(C)(C)C1)C2c1ccc(O)cc1O", "recorded.measurement": 6.22}
{"compound": "O=C(Nc1nc(-c2ccccn2)cs1)Nc1ccc(F)cc1F", "recorded.measurement": 11.5}
{"compound": "CS(=O)(=O)c1ncc(Cl)c(C(=O)Nc2ccc3ccccc3c2)n1", "recorded.measurement": 47.5}

From here, focus on the item given below.
Report IC50 for Cc1[nH][nH]c(=O)c1C(c1c(C)[nH][nH]c1=O)c1cn(Cc2ccc(Cl)c(Cl)c2)c2ccccc12 please.
27.6
